# tgt: recombinant BACE1 protein (Homo sapiens, UniProt P56817)
# Construct: recombinant BACE1 protein in a final concentration of 1 μg/ml
# Sequence (P56817 46-501): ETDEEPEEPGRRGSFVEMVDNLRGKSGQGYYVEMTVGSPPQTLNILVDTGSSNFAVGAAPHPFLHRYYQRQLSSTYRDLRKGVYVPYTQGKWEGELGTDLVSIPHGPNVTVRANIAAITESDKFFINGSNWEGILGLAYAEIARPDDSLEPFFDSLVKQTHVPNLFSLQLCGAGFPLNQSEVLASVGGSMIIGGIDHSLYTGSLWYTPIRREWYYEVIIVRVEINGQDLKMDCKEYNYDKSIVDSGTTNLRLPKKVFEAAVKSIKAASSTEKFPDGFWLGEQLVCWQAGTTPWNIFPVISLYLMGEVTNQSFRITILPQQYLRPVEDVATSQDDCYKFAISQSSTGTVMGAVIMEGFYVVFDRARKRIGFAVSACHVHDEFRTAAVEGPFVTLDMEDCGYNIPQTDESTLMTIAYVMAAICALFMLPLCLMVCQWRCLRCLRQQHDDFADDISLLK
# method: Biochemical FRET based assay
# condition.info: recombinant BACE1 1 μg/ml, APP-derived Swedish-mutation peptide substrate, 120 minutes, room temperature, pH 5.0; read-out: Biochemical FRET based assay pIC50 (converted)
measure.name: IC50

CN1CC(C)(c2cc(-c3ccccc3)c(F)cc2F)N=C(N)C1=O (stereo not drawn) [compound 6] | > 30.2 µM
CN1CC(C)(c2cccc(-c3cncnc3)c2)N=C(N)C1=O (stereo not drawn) [compound 16] | > 30.2 µM

Turning now to a further compound:
So for CN1CC(C)(c2cc(-c3cncnc3)c(F)cc2F)N=C(N)C1=O (stereo not drawn) [compound 10] , the logged IC50 turned out to be > 30.2 µM
